Measured pIC50, listed per entry for reference.
assaySystem: c-KIT (V654A) (Homo sapiens (Human), UniProt P10721, V654A)
Sequence (P10721 26-976 V654A): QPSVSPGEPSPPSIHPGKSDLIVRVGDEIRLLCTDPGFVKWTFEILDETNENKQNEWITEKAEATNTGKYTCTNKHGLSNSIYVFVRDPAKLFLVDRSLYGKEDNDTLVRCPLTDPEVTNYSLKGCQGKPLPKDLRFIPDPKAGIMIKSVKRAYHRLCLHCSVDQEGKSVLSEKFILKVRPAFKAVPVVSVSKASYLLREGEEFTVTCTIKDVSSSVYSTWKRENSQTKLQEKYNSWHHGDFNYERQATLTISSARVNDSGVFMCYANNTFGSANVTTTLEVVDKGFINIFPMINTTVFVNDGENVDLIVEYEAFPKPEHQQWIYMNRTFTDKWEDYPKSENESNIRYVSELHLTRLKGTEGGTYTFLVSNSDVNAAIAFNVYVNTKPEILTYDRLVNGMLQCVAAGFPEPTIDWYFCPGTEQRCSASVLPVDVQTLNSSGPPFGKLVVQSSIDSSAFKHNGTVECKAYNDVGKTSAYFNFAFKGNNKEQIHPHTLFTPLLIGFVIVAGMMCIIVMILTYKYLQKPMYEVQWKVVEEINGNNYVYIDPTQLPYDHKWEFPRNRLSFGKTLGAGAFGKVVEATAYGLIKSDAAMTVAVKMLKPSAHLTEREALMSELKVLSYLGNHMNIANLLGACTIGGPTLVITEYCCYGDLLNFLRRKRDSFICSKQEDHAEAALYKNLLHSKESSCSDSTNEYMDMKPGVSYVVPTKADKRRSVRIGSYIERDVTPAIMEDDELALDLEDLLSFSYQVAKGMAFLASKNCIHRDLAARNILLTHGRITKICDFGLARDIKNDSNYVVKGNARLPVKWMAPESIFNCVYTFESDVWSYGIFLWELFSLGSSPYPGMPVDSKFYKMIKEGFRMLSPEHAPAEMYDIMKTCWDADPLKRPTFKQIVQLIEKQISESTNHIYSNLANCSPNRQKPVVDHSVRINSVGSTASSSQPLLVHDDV
methodSummary: c-Kit (V654A) Omnia assay for potency assessment (Method E)
Format: biochemical
conditionDescription: [ATP]=220 μM, read-out: Mutant c-KIT (V654A) IC50 Apparent
To interpret pIC50, take it as minus log10 of a concentration measured in moles per litre.

In the examples that follow, each entry is paired with its recorded pIC50.
Ask: Please tell me: pIC50 of "C=CC(=O)Nc1ccc(C(=O)Nc2ccc(C)c(Nc3nccc(-c4cccnc4)n3)c2)cc1C(F)(F)F" , system c-KIT (V654A) (Homo sapiens (Human), UniProt P10721, V654A)?
Reply: 7.08

Ask: Give c-KIT (V654A) (Homo sapiens (Human), UniProt P10721, V654A) pIC50 for "Cc1ccc(NC(=O)c2ccc(NS(=O)(=O)c3ccc(Cl)nc3)cc2)cc1Nc1nccc(-c2cccnc2)n1"
Reply: 6.76

Ask: Report pIC50 for "Cc1ccc(NC(=O)c2ccc(NC(=O)CCl)cc2)cc1Nc1nccc(-c2cccnc2)n1" tested on c-KIT (V654A) (Homo sapiens (Human), UniProt P10721, V654A).
Reply: 6.59

Please look at the following molecule next.
Ask: Lookup: pIC50 / c-KIT (V654A) (Homo sapiens (Human), UniProt P10721, V654A) / "Cc1ccc(C(=O)Nc2ccc(NC(=O)/C=C/CN(C)C)c(C(F)(F)F)c2)cc1Nc1nccc(-c2cccnc2)n1"
Reply: 6.67

FYI, the data here is from patent US8586600B2.
